# System: SF-539 CNS
# assay.explanation: NCI-60 one-dose screen, 48 h
# assay.conditions: 10 µM
The panel holds about 83,000 compounds, 20% with a hit somewhere; the sample as a whole holds those more often. Calls of active or inactive are those of the source. Rule for the calls: active = growth percent below 10; inactive = the rest.
Bench note: report the call from class 1 for active, class 0 for inactive

Please review the entries below; each comes with its answer.
> print(dat)
                                   molecule  assigned.label
1  CCOC(=O)CNC(=O)CN(Cc1ccccc1)C(=O)[C@@]1(C)CCC[C@]2(C)[C@H]3CC4C(C(C)C)=C[C@]3(CC[C@H]21)[C@@H]1C(=O)CCC(=O)[C@H]41         class 0
2  CN1CCN(Cc2ccc(C(=O)Nc3cccc(Nc4ccc5cc(O)ccc5n4)c3)cc2C(F)(F)F)CC1         class 1
3  N#Cc1c(-c2ccc(Cl)cc2)cc(-c2ccccc2)nc1OCc1ccccc1         class 0
4  O=C(c1ccc(Cl)cc1)C1[C@H](c2ccc(Br)cc2)[C@@H](c2ccccc2)NC12C(=O)Nc1ccccc12 (stereo partly drawn)         class 1

// param item: CCCCSc1nc(Nc2ccc(/C(C)=N/NC(N)=S)cc2)c(C#N)c(-c2ccc(F)cc2)n1 ; yields the recorded call
class 1

Input OCc1[nH]nc2cc(Nc3ncc4ccc(Br)c(OC5CCC(O)CC5)c4n3)ccc12 (stereo not drawn)
class 1

Input COc1ccc2nc(Cl)c(-c3cc(-c4ccccc4)nc(=S)[nH]3)cc2c1
class 0

Input CS(=O)(=O)Nc1ccc(-c2ccc3c(c2)ncn3-c2ccc(NC(=O)Nc3ccc(Br)cc3)cc2)cc1
class 1

Input COc1ccc(NC(=O)Nc2ccc(OCC(=O)N=Nc3c(O)[nH]c4ccc([N+](=O)[O-])cc34)cc2)cc1
class 0

Input COC(=O)C(Cc1ccc(O)c(O)c1)NC(=O)C(CSC/C=C(\C)CCCC(C)CCCC(C)CCCC(C)C)NC(C)=O (stereo not drawn)
class 1

Input Cc1noc2c(Cc3ccccc3)nn(CC(=O)N/N=C/c3ccc(F)cc3)c(=O)c12
class 0

Input O=C(Nc1cc(Cl)cc(Cl)c1)Nc1cc(Cl)cc(Cl)c1
class 1

Input COc1ccc(CN2[C@H](C(=O)NCCCCCCC(=O)NO)Cc3c([nH]c4ccccc34)[C@H]2C2CC2)cc1
class 1
